- Tested on: NCI/ADR-RES ovarian
- protocol.description: NCI tumour cell line growth inhibition, 48 h
Where a SMILES comes first, the peptide text is derived from it.
assay.endpoint: TGI

C=C1C[C@@H]2O[C@H]3[C@H]4[C@@H](C[C@@H](C)[C@@H](OC(C)=O)[C@H]42)[C@@H](C)CO[C@@]3(C)[C@H](OC(=O)CCCCCCC)C[C@H]1O : 30.7 µM
Nc1[nH]c(=S)nc2nc3c(c(-c4ccccc4)c12)CCCC3 : > 100 µM
CNC1Cc2c[nH]c3cccc(c23)C12C=C(C)C(=O)O2 (centres undefined) : > 100 µM
NC(=O)C1CCCN1C(=O)C(N)Cc1ccccc1 (stereo not drawn) (H-Phe-Pro-NH2; configuration not given here) : > 100 µM
CC(C)(C)c1cc(/C=N/NC(=O)c2ccccc2NC(=O)c2cccs2)c(O)c(C(C)(C)C)c1 : 15.9 µM

Input line: Assign TGI to the following record: O=[N+]([O-])c1ccc(N/N=C2/CC3=C2CCCCCCCCCC3)c([N+](=O)[O-])c1
Output line: > 100 µM

Input line: Note down TGI recorded for Cn1cc(-c2nc(-c3c[nH]c4ncccc34)cs2)c2ccccc21
Output line: > 100 µM

Input line: Assign TGI to the following record: O=C1CC(c2ccccc2)Cc2nc3ccc(Br)cc3cc21 (centres undefined)
Output line: 9.03 µM

Input line: In one line, give reported TGI of the entry O=C1C2CCCCC2C(=O)N1n1c(-c2ccccc2)n[nH]c1=O (centres undefined) .
Output line: > 100 µM

* * *

- System: PC-3 prostate
- protocol.description: NCI tumour cell line growth inhibition, 48 h
Recorded GI50 by entry

Sample answers from the record:
COC1=C(C)C(=O)c2c(c(CCCl)c3n2CCC3OC(C)=O)C1=O (stereo not drawn) : 0.749 µM
COc1cc([N+](=O)[O-])c(OC)cc1-c1nc2sc(C)cn2c1/C(N)=N/C(=N)N : 45.9 µM
CC(C)(C)CC(C)(C)c1ccc(O)c(Cc2ccc(Cl)cc2Cl)c1 : 1.54 µM

Input line: State GI50 on PC-3 prostate. Entry: Cn1cc(C2=C(c3cn(-c4ccccc4)c4ccccc34)C(=O)NC2=O)c2ccccc21
Output line: 9.86 µM

Input line: Please report the measured GI50 for C=C1C(=O)O[C@H]2[C@H](OC(C)=O)[C@@H](C)CCCC3(C)OC3CCC3(CO3)[C@H](O)C[C@@H]12 (stereo partly drawn) tested on PC-3 prostate.
Output line: 4.4 µM

Input line: Return reported GI50 for target or system PC-3 prostate, item Cn1cc(-c2nc(-c3c[nH]c4ncccc34)cs2)c2ccccc21 .
Output line: 16.4 µM

* * *

Item-by-item account of TGI
- Tested on: SW-620 colon
- protocol.description: NCI tumour cell line growth inhibition, 48 h

Some compounds with recorded TGI:
Cn1cc(C2=C(c3cn(-c4ccccc4)c4ccccc34)C(=O)NC2=O)c2ccccc21 : > 25 µM
CCOC(=O)Cn1c2ccc(Br)cc2c2nc3ccccc3nc21 : > 100 µM
Oc1ccc2ccccc2c1N=Nc1cc(Cl)ccc1Cl : > 50 µM
O=[N+]([O-])c1ccc(C(Cl)C(Cl)c2ccc(C(Cl)C(Cl)c3ccc([N+](=O)[O-])cc3[N+](=O)[O-])cc2)c([N+](=O)[O-])c1 (stereo unspecified) : 1.69 µM

Input line: Report TGI on SW-620 colon for this entry: c1cc2nnsc2s1
Output line: > 100 µM

Input line: Quote TGI with test system SW-620 colon for COc1ccc2[nH]c3c(c2c1)CC(=O)N1CCCC(CC3O)C1 (stereo unspecified)
Output line: > 100 µM

Input line: Fill in: TGI on SW-620 colon, entry O=C(CSCC(=O)N/N=C/c1ccccc1)N/N=C\c1ccccc1
Output line: > 100 µM

Input line: Identify measured TGI obtained with SW-620 colon for COc1cc2oc(-c3ccccc3)cc(=O)c2c(O)c1C .
Output line: > 100 µM

Input line: Enter TGI (test system SW-620 colon) for CCCCCCn1c(SC)nc(COC(=O)NC)c1COC(=O)NC
Output line: 64.4 µM

Input line: State measured TGI of the compound CC(=O)Nc1ccc(-c2nnc(SCC(=O)Nc3cccc(Cl)c3)o2)cc1 with SW-620 colon.
Output line: 28 µM

Input line: Please report the measured TGI for CCCC1CC(=O)NC(=O)C1C(=O)OC(C)(C)C (stereo unspecified) tested on SW-620 colon.
Output line: > 100 µM
